# Test system: Lolium perenne (LOLPE)
# assay-protocol: Example B post-emergence herbicidal test, LOLPE
# Assay type: in vivo
# test-parameters: Lolium perenne, 312 h, rate 250 g/ha, evaluated after 13 days, scale 0-100, read-out: Post-emergence activity LOLPE (100=total damage to plant; 0=no damage to plant)
experimental-readout: pest or weed control at 250 g/ha (%)

INSERT INTO assay_data (compound, experimental_readout, value_units, recorded_number) VALUES
  ('Cc1cc(-c2ccc(F)cc2)cc(C)c1C1C(=O)CC(CC2CCOCC2)C1=O (centres unmarked)', 'pest or weed control at 250 g/ha', '%', 90),
  ('CCc1cc(C)cc(C)c1C1C(=O)C/C(=C\C2CCOC2)C1=O (centres unmarked)', 'pest or weed control at 250 g/ha', '%', 100),
  ('CCCOC(=O)OC1=C(c2c(C)cc(C)cc2C)C(=O)C(CC2CCOC2)C1 (centres unmarked)', 'pest or weed control at 250 g/ha', '%', 100),
  ('Cc1cc(C)c(C2C(=O)CC(CC3OCCO3)C2=O)c(C)c1 (centres unmarked)', 'pest or weed control at 250 g/ha', '%', 90),
  ('Cc1cc(C)c(C2C(=O)CC(CC3CCN(C(=O)C(F)(F)F)C3)C2=O)c(C)c1 (centres unmarked)', 'pest or weed control at 250 g/ha', '%', 90);
